# ASSAY DETAILS: total protein half-life in vivo (active degradation + dilution); higher = more stable protein
# RECORDED CONDITIONS: wild type E. coli NCM3722; growth: C-lim chemostat; doubling time 12 h
# label = class 1 if total protein half-life in vivo >= 7 h else class 0

# count of solved cases: 3
MNSCDFRVFLQEFGTTVHLSLPGSVSEKERLLLKLLMQGMSVTEISQYRNRSAKTISHQKKQLFEKLGIQSDITFWRDIFFQYNPEIISATGSNSHRYINDNHYHHIVTPEAISLALENHEFKPWIQPVFCAQTGVLTGCEVLVRWEHPQTGIIPPDQFIPLAESSGLIVIMTRQLMKQTADILMPVKHLLPDNFHIGINVSAGCFLAAGFEKECLNLVNKLGNDKIKLVLELTERNPIPVTPEARAIFDSLHQHNITFALDDFGTGYATYRYLQAFPVDFIKIDKSFVQMASVDEISGHIVDNIVELARKPGLSIVAEGVETQEQADLMIGKGVHFLQGYLYSPPVPGNKFISEWVMKAGG : class 1
MFPFRRNVLAFAALLALSSPVLAGKLAIVIDDFGYRPHNENQVLAMPSAISVAVLPDSPHAREMATKAHNSGHEVLIHLPMAPLSKQPLEKNTLRPEMSSDEIERIIRSAVNNVPYAVGINNHMGSKMTSNLFGMQKVMQALERYNLYFLDSVTIGNTQAMRAAQGTGVKVIKRKVFLDDSQNEADIRVQFNRAIDLARRNGSTIAIGHPHPATVRVLQQMVYNLPPDITLVKASSLLNEPQVDTSTPPKNAVPDAPRNPFRGVKLCKPKKPIEPVYANRFFEVLSESISQSTLIVYFQHQWQGWGKQPEAAKFNASAN : class 1
MAEKRNIFLVGPMGAGKSTIGRQLAQQLNMEFYDSDQEIEKRTGADVGWVFDLEGEEGFRDREEKVINELTEKQGIVLATGGGSVKSRETRNRLSARGVVVYLETTIEKQLARTQRDKKRPLLHVETPPREVLEALANERNPLYEEIADVTIRTDDQSAKVVANQIIHMLESN [P0A6D7] : class 0

Shifting focus to the sequence that follows.
In plain terms: is recorded total protein half-life in vivo at least 7 h for MNNLPLLNDLRVFMLVARRAGFAAVAEELGVSPAFVSKRIALLEQTLNVVLLHRTTRRVTITEEGERIYEWAQRILQDVGQMMDELSDVRQVPQGMLRIISSFGFGRQVVAPALLALAKAYPQLELRFDVEDRLVDLVNEGVDLDIRIGDDIAPNLIARKLATNYRILCASPEFIAQHGAPKHLTDLSALPCLVIKERDHPFGVWQLRNKEGPHAIKVTGPLSSNHGEIVHQWCLDGQGIALRSWWDVSENIASGHLVQVLPEYYQPANVWAVYVSRLATSAKVRITVEFLRQYFAEHYPNFSLEHA ?
class 0

---

# ASSAY DETAILS: total protein half-life in vivo (active degradation + dilution); higher = more stable protein
# RECORDED CONDITIONS: wild type E. coli NCM3722; growth: C-lim chemostat; doubling time 12 h
Recorded total protein half-life in vivo values for a group of sequences are listed next.
// note: answer is a bare numeric in h

Example entries and their recorded answers appear below.
MSKLFWAMLSFITRLPVPRRWSQGLDFEHYSRGIITFPLIGLLLGAISGLVFMVLQAWCGAPLAALFSVLVLVLMTGGFHLDGLADTCDGVFSARSRDRMLEIMRDSRLGTHGGLALIFVVLAKILVLSELALRGESILASLAAACAVSRGTAALLMYRHRYAREEGLGNVFIGKIDGRQTCVTLGLAAIFAAVLLPGMHGVAAMVVTMVAIFILGQLLKRTLGGQTGDTLGAAIELGELVFLLALL : 12.7
MMRIALFLLTNLAVMVVFGLVLSLTGIQSSSVQGLMIMALLFGFGGSFVSLLMSKWMALRSVGGEVIEQPRNERERWLVNTVATQARQAGIAMPQVAIYHAPDINAFATGARRDASLVAVSTGLLQNMSPDEAEAVIAHEISHIANGDMVTMTLIQGVVNTFVIFISRILAQLAAGFMGGNRDEGEESNGNPLIYFAVATVLELVFGILASIITMWFSRHREFHADAGSAKLVGREKMIAALQRLKTSYEPQEATSMMALCINGKSKSLSELFMTHPPLDKRIEALRTGEYLK : 8.92
MNEFFPLASAAGMTVGLAVCALIVGLALAMFFAVWESAKWRPVAWAGSALVTILRGLPEILVVLFIYFGSSQLLLTLSDGFTINLGFVQIPVQMDIENFDVSPFLCGVIALSLLYAAYASQTLRGALKAVPVGQWESGQALGLSKSAIFFRLVMPQMWRHALPGLGNQWLVLLKDTALVSLISVNDLMLQTKSIATRTQEPFTWYIVAAAIYLVITLLSQYILKRIDLRATRFERRPS [P0AE34] : 11.9

Pending sequence:
What value of total protein half-life in vivo has been reported for the following sequence? MGKAVIAIHGGAGAISRAQMSLQQELRYIEALSAIVETGQKMLEAGESALDVVTEAVRLLEECPLFNAGIGAVFTRDETHELDACVMDGNTLKAGAVAGVSHLRNPVLAARLVMEQSPHVMMIGEGAENFAFARGMERVSPEIFSTSLRYEQLLAARKEGATVLDHSGAPLDEKQKMGTVGAVALDLDGNLAAATSTGGMTNKLPGRVGDSPLVGAGCYANNASVAVSCTGTGEVFIRALAAYDIAALMDYGGLSLAEACERVVMEKLPALGGSGGLIAIDHEGNVALPFNTEGMYRAWGYAGDTPTTGIYREKGDTVATQ
11.2

---

Recorded total protein half-life in vivo values for a group of sequences are listed next.
# ASSAY DETAILS: total protein half-life in vivo (active degradation + dilution); higher = more stable protein
# RECORDED CONDITIONS: wild type E. coli NCM3722; growth: P-lim chemostat; doubling time 12 h
// note: answer is a bare numeric in h

MNEFFPLASAAGMTVGLAVCALIVGLALAMFFAVWESAKWRPVAWAGSALVTILRGLPEILVVLFIYFGSSQLLLTLSDGFTINLGFVQIPVQMDIENFDVSPFLCGVIALSLLYAAYASQTLRGALKAVPVGQWESGQALGLSKSAIFFRLVMPQMWRHALPGLGNQWLVLLKDTALVSLISVNDLMLQTKSIATRTQEPFTWYIVAAAIYLVITLLSQYILKRIDLRATRFERRPS [P0AE34] : 12.3

Pending sequence:
What value of total protein half-life in vivo has been reported for the following sequence? MGKAVIAIHGGAGAISRAQMSLQQELRYIEALSAIVETGQKMLEAGESALDVVTEAVRLLEECPLFNAGIGAVFTRDETHELDACVMDGNTLKAGAVAGVSHLRNPVLAARLVMEQSPHVMMIGEGAENFAFARGMERVSPEIFSTSLRYEQLLAARKEGATVLDHSGAPLDEKQKMGTVGAVALDLDGNLAAATSTGGMTNKLPGRVGDSPLVGAGCYANNASVAVSCTGTGEVFIRALAAYDIAALMDYGGLSLAEACERVVMEKLPALGGSGGLIAIDHEGNVALPFNTEGMYRAWGYAGDTPTTGIYREKGDTVATQ
8.26

---

Recorded total protein half-life in vivo values for a group of sequences are listed next.
# ASSAY DETAILS: total protein half-life in vivo (active degradation + dilution); higher = more stable protein
# RECORDED CONDITIONS: E. coli NCM3722 delta-smpB; growth: N-lim chemostat; doubling time 6 h
// note: answer is a bare numeric in h

Example entries and their recorded answers appear below.
MATYLIGDVHGCYDELIALLHKVEFTPGKDTLWLTGDLVARGPGSLDVLRYVKSLGDSVRLVLGNHDLHLLAVFAGISRNKPKDRLTPLLEAPDADELLNWLRRQPLLQIDEEKKLVMAHAGITPQWDLQTAKECARDVEAVLSSDSYPFFLDAMYGDMPNNWSPELRGLGRLRFITNAFTRMRFCFPNGQLDMYSKESPEEAPAPLKPWFAIPGPVAEEYSIAFGHWASLEGKGTPEGIYALDTGCCWGGTLTCLRWEDKQYFVQPSNRHKDLGEAAAS : 3.68
MMKKFIAPLLALLVSGCQIDPYTHAPTLTSTDWYDVGMEDAISGSAIKDDDAFSDSQADRGLYLKGYAEGQKKTCQTDFTYARGLSGKSFPASCNNVENASQLHEVWQKGADENASTIRLN : 3.95

Pending sequence:
What value of total protein half-life in vivo has been reported for the following sequence? MTLEWWFAYLLTSIILSLSPGSGAINTMTTSLNHGYRGAVASIAGLQTGLAIHIVLVGVGLGTLFSRSVIAFEVLKWAGAAYLIWLGIQQWRAAGAIDLKSLASTQSRRHLFQRAVFVNLTNPKSIVFLAALFPQFIMPQQPQLMQYIVLGVTTIVVDIIVMIGYATLAQRIALWIKGPKQMKALNKIFGSLFMLVGALLASARHA [P0AG34]
1.73
